- method_summary: Light transmission at 580 nm (% T)
- Type: physicochemical
- condition_summary: 9% REF2 and 1% of the specified ester in 60:40 hydrogenated polydecene:DC245; 580 nm
- Method: The translucency of a composition may be measured by placing a sample of standardised thickness in the light path of a spectrophotometer and measuring transmittance, as a percentage of light transmitted in the absence of the gel. This test was carried out using a dual-beam spectrophotometer. […] A transmittence measured at any temperature in the range from 20-25° C. is usually adequately accurate, but measurement is made at 22° C. if more precision is required.
assay_metric: Clarity % T (%)

1. CCCCCCCCC(=O)OC[C@H]1O[C@@H](O[C@H]2[C@H](OC(=O)CCCCCCCC)[C@@H](OC(=O)CCCCCCCC)C(OC(=O)CCCCCCCC)O[C@@H]2COC(=O)CCCCCCCC)[C@H](OC(=O)CCCCCCCC)[C@@H](OC(=O)CCCCCCCC)[C@@H]1OC(=O)CCCCCCCC (stereo partly shown) [REF 2, cellobiose octanonanoate]
41
2. CCCCCCCCC(=O)OCC1OC(OC2C(COC(=O)CCCCCCCC)OC(OC(C)=O)C(OC(=O)CCCCCCCC)C2OC(=O)CCCCCCCC)C(OC(=O)CCCCCCCC)C(OC(=O)CCCCCCCC)C1OC(=O)CCCCCCCC (mixture of isomers) [Ex 1.5]
49
3. CCCCCCCCC(=O)OCC1OC(OC2C(COC(=O)CCCCCCCC)OC(OC(C)=O)C(OC(=O)CCCCCCCC)C2OC(=O)CCCCCCCC)C(OC(=O)CCCCCCCC)C(OC(=O)CCCCCCCC)C1OC(=O)CCCCCCCC (mixture of isomers) [Ex 1.6]
49
4. CCCCCCCCC(=O)OCC1OC(OC2C(COC(=O)CCCCCCCC)OC(OC(=O)c3ccc4ccccc4c3)C(OC(=O)CCCCCCCC)C2OC(=O)CCCCCCCC)C(OC(=O)CCCCCCCC)C(OC(=O)CCCCCCCC)C1OC(=O)CCCCCCCC (mixture of isomers) [Ex 1.3]
58

---

- method_summary: Gelling of water-immiscible cosmetic liquids in 96 well glass micro-titre plate
- Assay type: physicochemical
- Set-up: key: gel; g4: gel after overnight (18 hrs) storage at 4° C.; g22: gel after overnight (18 hrs) storage at 22° C.; sg: soft gel; sg22: soft gel after overnight (18 hrs) storage at 22° C.; solution; *: the test at 4° C. was not carried out
- condition_summary: 5% cellobiose ester in Mineral oil
assay_metric: gelling of Mineral oil

1. CCCCCCCCCCCC(=O)OC1OC(COC(=O)CCCCCCCC)C(OC2OC(COC(=O)CCCCCCCC)C(OC(=O)CCCCCCCC)C(OC(=O)CCCCCCCC)C2OC(=O)CCCCCCCC)C(OC(=O)CCCCCCCC)C1OC(=O)CCCCCCCC (mixture of isomers)
g22
2. CCCCCCCCC(=O)OCC1OC(OC2C(COC(=O)CCCCCCCC)OC(OC(=O)C3CCCC3)C(OC(=O)CCCCCCCC)C2OC(=O)CCCCCCCC)C(OC(=O)CCCCCCCC)C(OC(=O)CCCCCCCC)C1OC(=O)CCCCCCCC (mixture of isomers)
sol*
3. CCCCCCCCCCCCCCCC(=O)OC1OC(COC(=O)CCCCCCCCC)C(OC2OC(COC(=O)CCCCCCCCC)C(OC(=O)CCCCCCCCC)C(OC(=O)CCCCCCCCC)C2OC(=O)CCCCCCCCC)C(OC(=O)CCCCCCCCC)C1OC(=O)CCCCCCCCC (mixture of isomers) [Ex 2.12]
gel
4. CCCCCCCCC(=O)OCC1OC(OC2C(COC(=O)CCCCCCCC)OC(OC(=O)CCCCC)C(OC(=O)CCCCCCCC)C2OC(=O)CCCCCCCC)C(OC(=O)CCCCCCCC)C(OC(=O)CCCCCCCC)C1OC(=O)CCCCCCCC (mixture of isomers)
g22

---

- method_summary: Gelling of water-immiscible cosmetic liquids in 96 well glass micro-titre plate
- Assay type: physicochemical
- Design: key: gel; g4: gel after overnight (18 hrs) storage at 4° C.; g22: gel after overnight (18 hrs) storage at 22° C.; sg: soft gel; sg22: soft gel after overnight (18 hrs) storage at 22° C.; solution; *: the test at 4° C. was not carried out
- condition_summary: 5% cellobiose ester in Polydecene
assay_metric: gelling of Polydecene

1. CCCCCCCCCC(=O)OCC1OC(OC2C(COC(=O)CCCCCCCCC)OC(OC(C)=O)C(OC(=O)CCCCCCCCC)C2OC(=O)CCCCCCCCC)C(OC(=O)CCCCCCCCC)C(OC(=O)CCCCCCCCC)C1OC(=O)CCCCCCCCC (mixture of isomers) [Ex 2.5]
gel
2. CCCCCCCCC(=O)OCC1OC(OC2C(COC(=O)CCCCCCCC)OC(OC(=O)c3ccccc3)C(OC(=O)CCCCCCCC)C2OC(=O)CCCCCCCC)C(OC(=O)CCCCCCCC)C(OC(=O)CCCCCCCC)C1OC(=O)CCCCCCCC (mixture of isomers) [Ex 1.1]
gel
3. CCCCCCCCC(=O)OCC1OC(OC2C(COC(=O)CCCCCCCC)OC(OC(=O)CCCCCC)C(OC(=O)CCCCCCCC)C2OC(=O)CCCCCCCC)C(OC(=O)CCCCCCCC)C(OC(=O)CCCCCCCC)C1OC(=O)CCCCCCCC (mixture of isomers) [Ex 1.22]
gel

---

- method_summary: Light transmission at 580 nm (% T)
- Format: physicochemical
- condition_summary: 9% REF2 and 1% of the specified ester in 60:40 hydrogenated polydecene:DC245; 580 nm
assay_metric: Clarity % T

1) CCCCCCCCC(=O)OCC1OC(O)C(OC(=O)CCCCCCCC)C(OC(=O)CCCCCCCC)C1OC1OC(COC(=O)CCCCCCCC)C(OC(=O)CCCCCCCC)C(OC(=O)CCCCCCCC)C1OC(=O)CCCCCCCC (mixture of isomers) [REF 5, reference compound]
31%
2) CCCCCCCCCCCCCCCC(=O)OC1OC(COC(=O)CCCCCCCC)C(OC2OC(COC(=O)CCCCCCCC)C(OC(=O)CCCCCCCC)C(OC(=O)CCCCCCCC)C2OC(=O)CCCCCCCC)C(OC(=O)CCCCCCCC)C1OC(=O)CCCCCCCC (mixture of isomers)
45%
3) CCCCCCCCC(=O)OCC1OC(OC2C(COC(=O)CCCCCCCC)OC(OC(=O)c3ccccc3)C(OC(=O)CCCCCCCC)C2OC(=O)CCCCCCCC)C(OC(=O)CCCCCCCC)C(OC(=O)CCCCCCCC)C1OC(=O)CCCCCCCC (mixture of isomers) [Ex 1.1]
55%
4) CCCCCCCCC(=O)OCC1OC(OC2C(COC(=O)CCCCCCCC)OC(OC(=O)CCCCCCCC)C(OC(=O)CCCCCCCC)C2OC(=O)CCCCCCCC)C(OC(=O)CCCCCCCC)C(OC(=O)CCCCCCCC)C1OC(=O)CCCCCCCC (mixture of isomers) [REF 3, reference compound]
46%

---

- method_summary: Gelling of water-immiscible cosmetic liquids in 96 well glass micro-titre plate
- Format: physicochemical
- Design: key: gel; g4: gel after overnight (18 hrs) storage at 4° C.; g22: gel after overnight (18 hrs) storage at 22° C.; sg: soft gel; sg22: soft gel after overnight (18 hrs) storage at 22° C.; solution; *: the test at 4° C. was not carried out
- condition_summary: 5% cellobiose ester in ISA; 150° C. 2.5 hours, cooled to ambient
- Method: In this Example, various samples of esterified cellobiose prepared as in Example 1 or 2 above, were used to gel water-immiscible cosmetic liquids, in accordance with the procedure given below, in which a large number of gels can be prepared simultaneously. The samples were tested in a 96 well (8×12 rows) glass micro-titre plate. […] The contents of the wells were assessed at the end of the cooling period, by visual inspection and by poking the contents of each well with a micro-spatula. […]
assay_metric: gelling of ISA

1) CCCCCCCCCCCCCCCC(=O)OC1OC(COC(=O)CCCCCCCCC)C(OC2OC(COC(=O)CCCCCCCCC)C(OC(=O)CCCCCCCCC)C(OC(=O)CCCCCCCCC)C2OC(=O)CCCCCCCCC)C(OC(=O)CCCCCCCCC)C1OC(=O)CCCCCCCCC (mixture of isomers) [Ex 2.13]
gel
2) CCCCCCCCC(=O)OCC1OC(OC2C(COC(=O)CCCCCCCC)OC(OC(=O)C3CCCC3)C(OC(=O)CCCCCCCC)C2OC(=O)CCCCCCCC)C(OC(=O)CCCCCCCC)C(OC(=O)CCCCCCCC)C1OC(=O)CCCCCCCC (mixture of isomers)
sg22
3) CCCCCCCCCCCC(=O)OC1OC(COC(=O)CCCCCCCC)C(OC2OC(COC(=O)CCCCCCCC)C(OC(=O)CCCCCCCC)C(OC(=O)CCCCCCCC)C2OC(=O)CCCCCCCC)C(OC(=O)CCCCCCCC)C1OC(=O)CCCCCCCC (mixture of isomers)
g22
4) CCCCCCCCCCCCCCCC(=O)OC1OC(COC(=O)CCCCCCCC)C(OC2OC(COC(=O)CCCCCCCC)C(OC(=O)CCCCCCCC)C(OC(=O)CCCCCCCC)C2OC(=O)CCCCCCCC)C(OC(=O)CCCCCCCC)C1OC(=O)CCCCCCCC (mixture of isomers) [Ex 1.9]
g22
